Reported values of variant/HC_K99L for individual entries
Molecular target: T1, mouse tissue factor pathway inhibitor (TFPI) (mouse, UniProt O54819 29-289, limits assumed)
T1 construct: bought; also called mTFPI; murine TFPI
T1 sequence (looked up): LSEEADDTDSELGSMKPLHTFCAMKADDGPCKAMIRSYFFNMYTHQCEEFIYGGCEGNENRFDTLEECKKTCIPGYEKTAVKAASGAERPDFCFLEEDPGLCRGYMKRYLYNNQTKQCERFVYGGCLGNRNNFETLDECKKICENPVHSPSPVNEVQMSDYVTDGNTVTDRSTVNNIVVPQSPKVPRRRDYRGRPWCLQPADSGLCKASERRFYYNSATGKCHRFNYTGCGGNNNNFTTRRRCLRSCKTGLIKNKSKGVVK
Assay: competitive ELISA

{"BINDER": "2A8 HC S35D+S55R+K99L/LC Y48F+N51V+D91W+G93S (Fab, V domains shown) VH: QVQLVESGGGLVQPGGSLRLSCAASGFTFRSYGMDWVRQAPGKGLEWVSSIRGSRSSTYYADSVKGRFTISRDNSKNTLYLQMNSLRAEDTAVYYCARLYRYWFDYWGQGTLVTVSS VL: DIELTQPPSVSVAPGQTARISCSGDNLRNYYAHWYQQKPGQAPVVVIFYDVNRPSGIPERFSGSNSGNTATLTISGTQAEDEADYYCQSWWDSVPVFGGGTKLTVLG", "variant/HC_K99L": "16.5 ratio"}
{"BINDER": "2A8 HC S35D+K99L/LC Y48F+D91L+V94T+V96W (Fab, V domains shown) VH: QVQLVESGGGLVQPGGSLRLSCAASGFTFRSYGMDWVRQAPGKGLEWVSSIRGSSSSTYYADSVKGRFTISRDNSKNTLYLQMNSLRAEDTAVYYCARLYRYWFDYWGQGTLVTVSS VL: DIELTQPPSVSVAPGQTARISCSGDNLRNYYAHWYQQKPGQAPVVVIFYDNNRPSGIPERFSGSNSGNTATLTISGTQAEDEADYYCQSWLDGTPWFGGGTKLTVLG", "variant/HC_K99L": "19.3 ratio"}
{"BINDER": "2A8-127 (HC S35D+K99L/LC Y48F+N51V+G56D+V96W) (Fab, V domains shown) VH: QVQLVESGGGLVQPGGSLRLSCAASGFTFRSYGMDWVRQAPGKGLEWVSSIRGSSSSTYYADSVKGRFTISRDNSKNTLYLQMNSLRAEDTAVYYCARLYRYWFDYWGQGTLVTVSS VL: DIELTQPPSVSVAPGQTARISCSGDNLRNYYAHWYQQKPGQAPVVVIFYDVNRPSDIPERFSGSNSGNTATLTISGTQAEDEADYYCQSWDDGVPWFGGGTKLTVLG", "variant/HC_K99L": "18.7 ratio"}
{"BINDER": "2A8 HC S35D+S55R+K99L/LC A13S+Y48F+N51V+D91W (Fab, V domains shown) VH: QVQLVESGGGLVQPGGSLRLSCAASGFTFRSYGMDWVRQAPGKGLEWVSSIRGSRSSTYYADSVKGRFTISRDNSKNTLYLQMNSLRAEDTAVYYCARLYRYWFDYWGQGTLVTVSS VL: DIELTQPPSVSVSPGQTARISCSGDNLRNYYAHWYQQKPGQAPVVVIFYDVNRPSGIPERFSGSNSGNTATLTISGTQAEDEADYYCQSWWDGVPVFGGGTKLTVLG", "variant/HC_K99L": "19.9 ratio"}
{"BINDER": "2A8 HC S35D+S55R+K99L/LC H33Y+Y48F+N51V+D91W (Fab, V domains shown) VH: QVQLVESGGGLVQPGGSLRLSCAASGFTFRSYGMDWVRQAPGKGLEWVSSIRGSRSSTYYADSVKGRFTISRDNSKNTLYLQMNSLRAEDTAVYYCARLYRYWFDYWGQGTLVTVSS VL: DIELTQPPSVSVAPGQTARISCSGDNLRNYYAYWYQQKPGQAPVVVIFYDVNRPSGIPERFSGSNSGNTATLTISGTQAEDEADYYCQSWWDGVPVFGGGTKLTVLG", "variant/HC_K99L": "11.2 ratio"}
{"BINDER": "2A8 HC G33P+I51D+S54F/LC Y48F+N51V+V96W (Fab, V domains shown) VH: QVQLVESGGGLVQPGGSLRLSCAASGFTFRSYPMSWVRQAPGKGLEWVSSDRGFSSSTYYADSVKGRFTISRDNSKNTLYLQMNSLRAEDTAVYYCARKYRYWFDYWGQGTLVTVSS VL: DIELTQPPSVSVAPGQTARISCSGDNLRNYYAHWYQQKPGQAPVVVIFYDVNRPSGIPERFSGSNSGNTATLTISGTQAEDEADYYCQSWDDGVPWFGGGTKLTVLG", "variant/HC_K99L": "0.4 ratio"}
